Test: small-molecule microarray binders of probe aEGFR, primary screen, biochemical, biotinylated probe, 635/667 nm fluorescence (AID 1097);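 further: probe is a biotinylated anti-EGFR antibody binding compounds printed on slides; score combines fluorescence near 667 nm and signal to noise of each spot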
Details: higher = more signal
recorded_endpoint: composite z-score
Reply: number alone, nothing else.

{"compound": "C=CCN1C(=O)[C@]2(O[C@H](CCO)[C@@H]([Si](C)(C)c3ccc(OC)cc3)[C@@H]2C)c2cc(N3C(=O)c4cccc5cccc3c45)ccc21", "composite z-score": -0.137}

Prompt: Item under review: "CCCC=C(CCC)[C@@H](NC(=O)Oc1ccc(F)cc1)c1ccc(C(=O)OC)cc1" . Reported composite z-score?
Response: 0.601

Prompt: Item under review: "[N-]=[N+]=NCc1ccccc1[C@@H]1OC(c2ccc(OCCCO)cc2)=N[C@]1(CCS(=O)(=O)c1ccccc1)C(=O)NCCN1CCOCC1" . Reported composite z-score?
Response: 0.208

Prompt: Item under review: CN1C2C=C(CCCO)C(C3C(=O)N(C(N)=O)C(=O)C32)C1c1ccc(CN2CCCC2)cc1 (stereo not given) . Reported composite z-score?
Response: -0.242

Prompt: Item under review: COc1ccc(NN2C(C(O)c3ccc([N+](=O)[O-])cc3)C=CC3C(=O)N(C4CCCCC4)C(=O)C32)cc1 (stereo not given) . Reported composite z-score?
Response: -0.143

Prompt: Item under review: CC1(C)[C@@H]2CC(C(O)C3C=CC4C(=O)N(c5ccccc5)C(=O)C4N3Nc3ccccc3)=C[C@H]1C2 (stereo not given in full) . Reported composite z-score?
Response: -0.0431

Prompt: Item under review: "CN1C(=O)[C@]2(Cc3ccccc3)N=C(c3ccc(OCCCO)cc3)O[C@@H]2c2ccccc21" . Reported composite z-score?
Response: 0.0492
